These data points were gathered from PubChem BioAssay AID1645848.

- settings: buffer; pH 7.4; 6.0 h; 150.0 µM
Mark class 1 for reported solubility kinetic of 6 µg/mL or greater; mark class 0 for anything smaller.

Past entries and their recorded results:
Record Cc1cnc(-c2ccccc2C2CC2)nc1NCc1ccc(-c2cccnc2)cc1 ; criterion: solubility kinetic no lower than 6 µg/mL. Met?
class 0

Record O=C1Nc2ccc(Cl)cc2/C1=C\c1cc(Cl)c(O)c(Cl)c1 ; criterion: solubility kinetic no lower than 6 µg/mL. Met?
class 1

Record O=C(CCc1ccccc1)Nc1ccc(S(=O)(=O)Nc2nccs2)cc1 ; criterion: solubility kinetic no lower than 6 µg/mL. Met?
class 1

Further cases:
Record Cc1ccnc(NC(=S)N2CCN(c3cccc(Cl)c3Cl)CC2)c1 ; criterion: solubility kinetic no lower than 6 µg/mL. Met?
class 0

Record Cc1ccnc(NC(=S)N2CCN(c3ccc(N)cc3)CC2)c1 ; criterion: solubility kinetic no lower than 6 µg/mL. Met?
class 1

Record CCOc1ccc(CCNC(=O)c2cc3cnccc3n2Cc2cccc(C)n2)cc1OCC ; criterion: solubility kinetic no lower than 6 µg/mL. Met?
class 1

Record Oc1ccc(CNc2ccc(C(F)(F)F)cc2F)c2cccnc12 ; criterion: solubility kinetic no lower than 6 µg/mL. Met?
class 1

----------
- settings: buffer; pH 7.4; 6.0 h; 150.0 µM
quantity_name: solubility kinetic

Here's what some known entries look like.
Identify measured solubility kinetic corresponding to CN(C)C(=O)c1cc2cnc(Nc3ccc(N4CCNCC4)cn3)nc2n1C1CCCC1
> 64 µg/mL

Identify measured solubility kinetic corresponding to CCN(CCN(C)C)C(=O)C1CCN(S(=O)(=O)c2c(C)noc2/C=C/c2ccccc2F)CC1
> 49 µg/mL

Identify measured solubility kinetic corresponding to CN1CCN(CCCN2c3ccccc3Sc3ccc(S(=O)(=O)N(C)C)cc32)CC1.CS(=O)(=O)O.CS(=O)(=O)O
> 66 µg/mL

Identify measured solubility kinetic corresponding to COc1ccc2[nH]c(=O)c(-c3noc(-c4cccs4)n3)cc2c1
< 1 µg/mL

Further cases:
Identify measured solubility kinetic corresponding to Cc1ccc2c(c1)N(S(=O)(=O)c1cc(-c3onc(C)c3C)ccc1C)CCO2
< 1 µg/mL

Identify measured solubility kinetic corresponding to O=C(Nc1ncc(Cc2ccccc2)s1)c1ccc(-c2cccc([N+](=O)[O-])c2)o1
< 1 µg/mL

Identify measured solubility kinetic corresponding to CCOC(=O)CCNc1cc(N2CCc3ccccc3CC2)nc(-c2ccccn2)n1
8.45 µg/mL

Identify measured solubility kinetic corresponding to O=C(NCc1ccc(N2CCCC2)nc1)c1cc(Cl)ccc1O
1.3 µg/mL

Identify measured solubility kinetic corresponding to Nc1ccccc1OCCn1c(CCNC(=O)C2CCCCC2)nc2ccccc21
44.5 µg/mL

Identify measured solubility kinetic corresponding to COc1ccc(Cn2c(CCC(=O)Nc3cc(C)cc(C)c3)nc3cccnc32)cc1
< 1 µg/mL

Identify measured solubility kinetic corresponding to CCOc1ccc(CCNC(=O)c2cc3sccc3n2Cc2ccc(F)cc2F)cc1OCC
< 1 µg/mL

----------
- settings: buffer; pH 7.4; 6.0 h; 150.0 µM
quantity_name: solubility kinetic

Identify measured solubility kinetic corresponding to O=S(=O)(Nc1ccc(-c2cccnc2)c2cccnc12)c1cccc(C(F)(F)F)c1
< 1 µg/mL

Identify measured solubility kinetic corresponding to Cc1cc(Cl)ccc1COc1ccnn1-c1cc(C(=O)O)ccn1
> 51 µg/mL

Identify measured solubility kinetic corresponding to CCOc1ccccc1C(=O)Nc1ccccc1C(=O)Nc1cccc(S(=O)(=O)C(F)(F)F)c1
1.57 µg/mL

Identify measured solubility kinetic corresponding to O=C(Nc1nc(-c2ccccc2)cs1)c1ccncc1NS(=O)(=O)c1cccnc1
> 65 µg/mL

Identify measured solubility kinetic corresponding to COc1ccc(-c2cc(-c3ccccc3)nc(SCC(=O)Nc3ccccc3C)c2C#N)cc1
< 1 µg/mL

Further cases:
Identify measured solubility kinetic corresponding to Cc1sc(NC(=O)Cc2ccc3c(c2)OCO3)nc1-c1ccc2c(c1)CCN2C(=O)c1ccccc1
< 1 µg/mL

Identify measured solubility kinetic corresponding to CCc1ccc(OC(C)C(=O)N2CCC(c3nc4ccccc4o3)CC2)cc1 (stereo not given)
17.9 µg/mL

Identify measured solubility kinetic corresponding to COc1ncccc1-c1cc2c(ccn2CC2CCN([S+](C)(=O)[O-])CC2)c(N2CCOCC2)n1
50.2 µg/mL

Identify measured solubility kinetic corresponding to Clc1ccccc1Nc1nc(-c2ccncc2)nc2ccccc12
< 1 µg/mL

Identify measured solubility kinetic corresponding to C[C@H]1CN(C(=O)Nc2ccc(F)cc2F)C[C@@H]1c1nc(-c2ccccc2)no1
19.3 µg/mL

Identify measured solubility kinetic corresponding to Cc1cc(SCc2sc(-c3ccc(C(F)(F)F)cc3)nc2C)ccc1OCC(=O)O
> 67 µg/mL

Identify measured solubility kinetic corresponding to CC(=O)NC1CCN(c2nc(-c3ccc(Br)cc3)cs2)CC1
5.01 µg/mL

Identify measured solubility kinetic corresponding to COc1cccc(N2CCN(c3ncc4c(n3)CCN(Cc3ccc(Br)cc3)C4)CC2)c1
< 1 µg/mL

Identify measured solubility kinetic corresponding to COCCn1ccc2c(C3=CCOCC3)nc(-c3ccc4c(c3)CNC4=O)cc21
> 86 µg/mL

Identify measured solubility kinetic corresponding to COc1ccccc1C(=O)Nc1nc2nc(C)cc(=O)n2[nH]1
> 44 µg/mL

Identify measured solubility kinetic corresponding to COc1cccc(C(=O)Nc2cccc(OCc3cc(=O)n4cccc(C)c4n3)c2)c1
< 1 µg/mL

Identify measured solubility kinetic corresponding to Cn1cc(-c2nc(Nc3ccc(F)c(F)c3)c3ccccc3n2)cn1
< 1 µg/mL

Identify measured solubility kinetic corresponding to C[C@@H]1C(=O)O[C@H]2[C@H]1CC[C@@]1(C)Cc3sc(NS(=O)(=O)Cc4ccccc4)nc3[C@@H](C)[C@H]21
> 68 µg/mL

Identify measured solubility kinetic corresponding to COc1ccccc1-c1nnc2sc(-c3ccc(N(C)C)cc3)nn12
1.04 µg/mL

Identify measured solubility kinetic corresponding to COc1ccccc1-c1[nH]nc2ncc(-c3ccc(C)cc3)nc12
< 1 µg/mL

Identify measured solubility kinetic corresponding to Cc1ccc2nc(NC3=NC(c4[nH]ncc4Cl)C4=C(CCCC4=O)N3)oc2c1 (stereo not given)
< 1 µg/mL

Identify measured solubility kinetic corresponding to CC(C)(C)c1ccc(-c2ccc(=O)n(CC(=O)NCCc3ccccc3)n2)cc1
< 1 µg/mL

Identify measured solubility kinetic corresponding to Cc1ccc(C)c(CN2C(=O)c3ccccc3S(=O)c3ccc(C(=O)N4CCN(c5ccccc5F)CC4)cc32)c1 (stereo not given)
< 1 µg/mL

Identify measured solubility kinetic corresponding to CCOc1ccccc1C(=O)Nc1ncccc1C(=O)Nc1cccc(S(=O)(=O)C(F)(F)F)c1
< 1 µg/mL
